Provenance of the data: paper PMC11345841

experimental.system: KIT(L576P) (Homo sapiens, UniProt P10721, L576P)
Construct: purchased Eurofins DiscoverX KINOMEscan (scanTK)
Sequence (P10721 26-976 L576P): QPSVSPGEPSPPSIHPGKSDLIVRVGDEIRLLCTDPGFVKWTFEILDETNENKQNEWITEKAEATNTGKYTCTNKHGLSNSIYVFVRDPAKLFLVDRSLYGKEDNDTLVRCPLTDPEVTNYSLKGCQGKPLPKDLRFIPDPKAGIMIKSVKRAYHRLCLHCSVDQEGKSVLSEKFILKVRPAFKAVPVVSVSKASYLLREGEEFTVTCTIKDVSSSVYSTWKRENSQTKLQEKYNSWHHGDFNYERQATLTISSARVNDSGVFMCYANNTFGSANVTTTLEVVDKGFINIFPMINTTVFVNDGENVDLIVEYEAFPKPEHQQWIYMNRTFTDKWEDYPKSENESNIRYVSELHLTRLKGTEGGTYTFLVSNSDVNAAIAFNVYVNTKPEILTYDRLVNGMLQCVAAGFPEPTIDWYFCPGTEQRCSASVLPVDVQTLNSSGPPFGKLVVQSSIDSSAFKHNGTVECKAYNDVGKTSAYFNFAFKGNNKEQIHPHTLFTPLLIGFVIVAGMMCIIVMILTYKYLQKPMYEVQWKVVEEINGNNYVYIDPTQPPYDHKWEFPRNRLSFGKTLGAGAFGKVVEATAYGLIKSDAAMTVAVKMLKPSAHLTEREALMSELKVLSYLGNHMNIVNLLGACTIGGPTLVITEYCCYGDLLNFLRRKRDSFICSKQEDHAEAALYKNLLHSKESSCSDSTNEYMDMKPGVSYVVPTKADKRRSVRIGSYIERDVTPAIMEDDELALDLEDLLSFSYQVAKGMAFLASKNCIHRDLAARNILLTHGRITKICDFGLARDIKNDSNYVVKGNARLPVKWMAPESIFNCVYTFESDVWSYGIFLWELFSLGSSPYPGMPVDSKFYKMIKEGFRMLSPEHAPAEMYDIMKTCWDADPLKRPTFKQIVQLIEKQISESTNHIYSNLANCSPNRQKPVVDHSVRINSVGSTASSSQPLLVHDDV
measurement.protocol: KINOMEscan ScanTK
Assay type: binding
conditions.used: read-out: %Control @1000nM
quantity: remaining binding at 1 µM (%)

compound="COC(=O)c1cnc(S(C)(=O)=O)nc1N1CCCC(n2nc(-c3ccc(Oc4ccccc4)cc3)c3c(N)ncnc32)C1 (centres unmarked) [Compound 8b]" numeric_readout=56
compound="C=CC(=O)N1CCC[C@@H](n2nc(-c3ccc(Oc4ccccc4)cc3)c3c(N)ncnc32)C1 [Compound 1g, Ibrutinib, reference compound]" numeric_readout=32
compound="CNC(=O)c1cnc(S(C)(=O)=O)nc1N1CCCC(n2nc(-c3ccc(Oc4ccccc4)cc3)c3c(N)ncnc32)C1 (centres unmarked) [Compound 8d]" numeric_readout=45
compound="CCOC(=O)c1cnc(S(C)(=O)=O)nc1N1CCC[C@@H](n2nc(-c3ccc(Oc4ccccc4)cc3)c3c(N)ncnc32)C1 [Compound 8c]" numeric_readout=64
compound="Cc1cnc(S(C)(=O)=O)nc1N1CCCC(n2nc(-c3ccc(Oc4ccccc4)cc3)c3c(N)ncnc32)C1 (centres unmarked) [Compound 8a]" numeric_readout=44
